Property: IC50; scope: individual molecules
Test system: SK-MEL-1
EXPERIMENTAL_DETAILS: Antiproliferative activity against human SK-MEL-1 cells harboring […] B-RAF assessed as cell growth inhibition measured after 72 hrs by CCK-8 analysis
Format: functional, cell-based
CONDITION_LABEL: SK-MEL-1, 72 h

{"columns": ["MOLECULE", "TARGET", "INEQUALITY_OPERATOR", "IC50 / nM"],
 "data": [
  ["O=S(=O)(Nc1ccc(F)c(C#Cc2cnc3[nH]nc(-c4ccc(F)cc4)c3c2)c1F)c1cccnc1", "SK-MEL-1", "=", 760],
  ["COc1cc(CN(c2ccc(F)c(C#Cc3cnc4[nH]nc(-c5ccc(F)cc5)c4c3)c2F)S(=O)(=O)c2cccnc2)c([N+](=O)[O-])cc1OC", "SK-MEL-1", ">", 10000]
]}

---

Property: pIC50; scope: individual molecules
TARGET: Serine/threonine-protein kinase B-raf (Homo sapiens, UniProt P15056, V600E)
Sequence (P15056 2-766 V600E limits assumed): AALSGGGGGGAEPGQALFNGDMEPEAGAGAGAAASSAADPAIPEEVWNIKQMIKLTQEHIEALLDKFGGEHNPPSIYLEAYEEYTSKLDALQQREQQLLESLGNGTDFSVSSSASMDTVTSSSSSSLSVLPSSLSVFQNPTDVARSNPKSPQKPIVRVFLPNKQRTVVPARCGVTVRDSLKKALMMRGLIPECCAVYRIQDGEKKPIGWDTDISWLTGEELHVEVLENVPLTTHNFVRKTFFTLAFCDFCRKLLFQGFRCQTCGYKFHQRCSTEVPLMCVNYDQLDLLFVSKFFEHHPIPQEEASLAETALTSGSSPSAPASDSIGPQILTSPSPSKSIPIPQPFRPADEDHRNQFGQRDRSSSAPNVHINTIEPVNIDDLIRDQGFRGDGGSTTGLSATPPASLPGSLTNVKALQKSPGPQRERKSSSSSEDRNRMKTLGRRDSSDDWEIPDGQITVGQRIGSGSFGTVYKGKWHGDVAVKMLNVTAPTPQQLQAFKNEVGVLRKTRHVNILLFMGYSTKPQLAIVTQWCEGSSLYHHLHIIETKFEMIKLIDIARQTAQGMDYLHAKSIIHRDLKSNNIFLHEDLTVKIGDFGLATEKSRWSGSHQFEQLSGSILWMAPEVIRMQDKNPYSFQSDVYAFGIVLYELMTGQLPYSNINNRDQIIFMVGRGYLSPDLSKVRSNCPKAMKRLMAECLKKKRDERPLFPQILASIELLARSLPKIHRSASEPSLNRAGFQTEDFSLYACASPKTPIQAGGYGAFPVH
EXPERIMENTAL_DETAILS: Inhibition of GST-tagged recombinant human B-RAF V600E mutant expressed in baculovirus expression system incubated for 1 hr in presence of ATP by FRET-based Z'-Lyte analysis
pIC50: −log10 of the molar value.

{"columns": ["MOLECULE", "INEQUALITY_OPERATOR", "pIC50"],
 "data": [
  ["O=S(=O)(Nc1ccc(F)c(C#Cc2cnc3[nH]nc(-c4ccc(F)cc4)c3c2)c1F)c1cccnc1", "=", 7.68],
  ["COc1cc(CN(c2ccc(F)c(C#Cc3cnc4[nH]nc(-c5ccc(F)cc5)c4c3)c2F)S(=O)(=O)c2cccnc2)c([N+](=O)[O-])cc1OC", "<", 5.00]
]}

---

Test system: A-375
EXPERIMENTAL_DETAILS: Antiproliferative activity against human A-375 cells harboring B-RAF V600E mutant assessed as cell growth inhibition irradiated with sun light for 5 mins measured after 72 hrs by CCK-8 analysis
Format: functional, cell-based
CONDITION_LABEL: A-375, light or radiation study

{"columns": ["MOLECULE", "IC50 (µM)"],
 "data": [
  ["O=S(=O)(Nc1ccc(F)c(C#Cc2cnc3[nH]nc(-c4ccc(F)cc4)c3c2)c1F)c1cccnc1", 0.17],
  ["COc1cc(CN(c2ccc(F)c(C#Cc3cnc4[nH]nc(-c5ccc(F)cc5)c4c3)c2F)S(=O)(=O)c2cccnc2)c([N+](=O)[O-])cc1OC", 0.28]
]}

---

Tested on: A-375
EXPERIMENTAL_DETAILS: Antiproliferative activity against human A-375 cells harboring B-RAF V600E mutant assessed as cell growth inhibition irradiated with sun light for 10 mins measured after 72 hrs by CCK-8 analysis
Assay type: functional, cell-based
CONDITION_LABEL: A-375, light or radiation study
pIC50: −log10 of the molar value.

{"columns": ["MOLECULE", "TARGET", "pIC50"],
 "data": [
  ["O=S(=O)(Nc1ccc(F)c(C#Cc2cnc3[nH]nc(-c4ccc(F)cc4)c3c2)c1F)c1cccnc1", "A-375", 6.72],
  ["COc1cc(CN(c2ccc(F)c(C#Cc3cnc4[nH]nc(-c5ccc(F)cc5)c4c3)c2F)S(=O)(=O)c2cccnc2)c([N+](=O)[O-])cc1OC", "A-375", 6.54]
]}
